assay: AUC (0 to infinity) in Sprague-Dawley rat at 3 mg/kg,po by LC-MS/MS analysis; type: ADME, organism-based; set-up: dose 3 mg/kg, route po; conditions: in vivo
PARAMETER: AUC(0-inf) (ng·h/mL)
Reply numerically in ng·h/mL, unit not repeated.

Input: # get_value(readout='AUC(0-inf)', item= O=C1NCCc2c1cnn2-c1cc(Cc2cccc(C(F)(F)F)c2)ccn1 )
Output: 709

Input: # get_value(readout='AUC(0-inf)', item= O=C1NCCc2c1cnn2-c1ccnc(Cc2cc(F)cc(C(F)(F)F)c2)c1 )
Output: 1260

---

experiment: Terminal brain concentration in Sprague-Dawley rat model of amphetamine-induced hyperlocomotion activity at 10 mg/kg, po measured after 2 hrs by LC-MS/MS analysis; type: ADME, organism-based; details: read-out: Clast
PARAMETER: concentration at 2 h
Phrase the answer as number then unit, nothing more needed.

Input: # get_value(readout='concentration at 2 h', item= O=C1NCCc2c1cnn2-c1ccnc(Cc2cc(F)cc(C(F)(F)F)c2)c1 )
Output: 1560 nM

---

experiment: AUC (0 to infinity) in CD-1 mouse at 3 mg/kg,po by LC-MS/MS analysis; format: ADME, organism-based; set-up: dose 3 mg/kg, route po; details: in vivo
PARAMETER: AUC(0-inf) (ng·h/mL)
Reply numerically in ng·h/mL, unit not repeated.

Input: # get_value(readout='AUC(0-inf)', item= O=C1NCCc2c1cnn2-c1ccnc(Cc2cc(F)cc(C(F)(F)F)c2)c1 )
Output: 5910

---

experiment: Octanol-water partition coefficient, log D of the compound by chromatographic method; format: physicochemical
Binary label based on chromatographic logD with cut-off 4: below gives TRUE, not below gives FALSE.

Input: State whether 4 exceeds chromatographic logD recorded for O=C1NCCc2c1cnn2-c1ccnc(Cc2cc(F)c(Cl)c(C(F)(F)F)c2)c1 .
Output: FALSE

Input: State whether 4 exceeds chromatographic logD recorded for Cc1nn(-c2ccnc(Cc3cc(F)cc(C(F)(F)F)c3)c2)c2c1C(=O)NCC2 .
Output: FALSE

Input: State whether 4 exceeds chromatographic logD recorded for CN1CCc2c(cnn2-c2cc(Cc3cc(F)cc(C(F)(F)F)c3)ccn2)C1=O .
Output: FALSE

Input: State whether 4 exceeds chromatographic logD recorded for O=C1NCCCc2c1cnn2-c1ccnc(Cc2cc(F)cc(C(F)(F)F)c2)c1 .
Output: FALSE

Input: State whether 4 exceeds chromatographic logD recorded for O=C1NCCc2nn(-c3ccnc(Cc4cc(F)cc(C(F)(F)F)c4)c3)cc21 .
Output: FALSE

Input: State whether 4 exceeds chromatographic logD recorded for O=C1CCCc2c1cnn2-c1cc(Cc2cccc(C(F)(F)F)c2)ccn1 .
Output: FALSE

Input: State whether 4 exceeds chromatographic logD recorded for O=C1NCCc2c1cnn2-c1cncc(Cc2cc(F)cc(C(F)(F)F)c2)c1 .
Output: TRUE

Input: State whether 4 exceeds chromatographic logD recorded for O=C1NCCc2c1cnn2-c1ccnc(Cc2cc(F)cc(C(F)F)c2)c1 .
Output: TRUE

---

assay: Octanol-water partition coefficient, log D of the compound by chromatographic method; type: physicochemical
PARAMETER: chromatographic logD

Input: # get_value(readout='chromatographic logD', item= Cc1nn(-c2ccnc(Cc3cc(F)cc(C(F)F)c3)c2)c2c1C(=O)NCC2 )
Output: 3.6

Input: # get_value(readout='chromatographic logD', item= O=C1NCCc2c1cnn2-c1cc(Cc2cc(F)cc(C(F)(F)F)c2)ccn1 )
Output: 5.1

Input: # get_value(readout='chromatographic logD', item= Cc1nn(-c2ccnc(Cc3cc(F)cc(OC(F)F)c3)c2)c2c1C(=O)NCC2 )
Output: 3.9

Input: # get_value(readout='chromatographic logD', item= O=C1NCCc2c1cnn2-c1cccc(Cc2cc(F)cc(C(F)(F)F)c2)c1 )
Output: 5

Input: # get_value(readout='chromatographic logD', item= O=C1NCCc2c1cnn2-c1cc(Cc2cccc(C(F)(F)F)c2)ccn1 )
Output: 4.9

---

experiment: Cmax in CD-1 mouse at 3 mg/kg,po by LC-MS/MS analysis; format: ADME, organism-based; design: dose 3 mg/kg, route po; conditions: in vivo
PARAMETER: Cmax (ng/mL)
Reply numerically in ng/mL, unit not repeated.

Input: # get_value(readout='Cmax', item= O=C1NCCc2c1cnn2-c1ccnc(Cc2cc(F)cc(C(F)(F)F)c2)c1 )
Output: 486

---

test: Clearance in cynomolgus monkey plasma at 1 mg/kg,iv by LC-MS/MS analysis; assay type: ADME, organism-based, Macaca fascicularis
PARAMETER: clearance (mL/min/kg)
Reply numerically in mL/min/kg, unit not repeated.

Input: # get_value(readout='clearance', item= O=C1NCCc2c1cnn2-c1ccnc(Cc2cc(F)cc(C(F)(F)F)c2)c1 )
Output: 2

---

test: Oral bioavailability in CD-1 mouse at 3 mg/kg by LC-MS/MS analysis; type: ADME, organism-based; conditions: in vivo
PARAMETER: bioavailability (%)
Reply numerically in %, unit not repeated.

Input: # get_value(readout='bioavailability', item= O=C1NCCc2c1cnn2-c1ccnc(Cc2cc(F)cc(C(F)(F)F)c2)c1 )
Output: 95

---

assay: Volume of distribution at steady state in CD-1 mouse at 1 mg/kg,iv by LC-MS/MS analysis; type: ADME, organism-based; conditions: in vivo, read-out: Vdss
PARAMETER: Vd (L/kg)
Reply numerically in L/kg, unit not repeated.

Input: # get_value(readout='Vd', item= O=C1NCCc2c1cnn2-c1ccnc(Cc2cc(F)cc(C(F)(F)F)c2)c1 )
Output: 1.5

---

experiment: Apparent permeability of compound across apical to basolateral side in dog MDCK-MDR1 cells incubated for 1 hr by LC-MS/MS analysis; format: ADME, cell-based, Canis lupus familiaris
Papp A→B at 1 h vs 30 ×10⁻⁶ cm/s: at or above is Y, below is N.

Input: # check: Papp A→B at 1 h of O=C1NCCc2c1cnn2-c1cc(Cc2cc(F)cc(C(F)(F)F)c2)ccn1 is greater than or equal to 30 ×10⁻⁶ cm/s
Output: Y

Input: # check: Papp A→B at 1 h of O=C1NCCc2c1cnn2-c1cc(Cc2cccc(C(F)(F)F)c2)ccn1 is greater than or equal to 30 ×10⁻⁶ cm/s
Output: Y

Input: # check: Papp A→B at 1 h of Cc1nn(-c2ccnc(Cc3cc(F)cc(C(F)F)c3)c2)c2c1C(=O)NCC2 is greater than or equal to 30 ×10⁻⁶ cm/s
Output: N

Input: # check: Papp A→B at 1 h of Cc1nn(-c2ccnc(Cc3cc(F)cc(OC(F)F)c3)c2)c2c1C(=O)NCC2 is greater than or equal to 30 ×10⁻⁶ cm/s
Output: Y

Input: # check: Papp A→B at 1 h of Cc1nn(-c2cncc(Cc3cc(F)cc(C(F)(F)F)c3)c2)c2c1C(=O)NCC2 is greater than or equal to 30 ×10⁻⁶ cm/s
Output: Y

Input: # check: Papp A→B at 1 h of O=C1NCCc2c1cnn2-c1ccnc(Cc2cc(F)cc(C(F)(F)F)c2)c1 is greater than or equal to 30 ×10⁻⁶ cm/s
Output: Y

Input: # check: Papp A→B at 1 h of Cc1nn(-c2ccnc(Cc3cc(F)cc(C(F)(F)F)c3)c2)c2c1C(=O)NCC2 is greater than or equal to 30 ×10⁻⁶ cm/s
Output: Y

Input: # check: Papp A→B at 1 h of O=C1NCCc2c1cnn2-c1cncc(Cc2cc(F)cc(C(F)(F)F)c2)c1 is greater than or equal to 30 ×10⁻⁶ cm/s
Output: Y

Input: # check: Papp A→B at 1 h of O=C1CCCc2c1cnn2-c1cc(Cc2cccc(C(F)(F)F)c2)ccn1 is greater than or equal to 30 ×10⁻⁶ cm/s
Output: N

---

assay: Volume of distribution at steady state in Sprague-Dawley rat at 1 mg/kg,iv by LC-MS/MS analysis; format: ADME, organism-based; conditions: in vivo, read-out: Vdss
PARAMETER: Vd (L/kg)
Reply numerically in L/kg, unit not repeated.

Input: # get_value(readout='Vd', item= O=C1NCCc2c1cnn2-c1ccnc(Cc2cc(F)cc(C(F)(F)F)c2)c1 )
Output: 1

Input: # get_value(readout='Vd', item= O=C1NCCc2c1cnn2-c1cc(Cc2cccc(C(F)(F)F)c2)ccn1 )
Output: 1.5

---

assay: Oral absorption in cynomolgus monkey at 3 mg/kg by LC-MS/MS analysis; type: ADME, organism-based, Macaca fascicularis; conditions: in vivo, read-out: Drug absorption
PARAMETER: Fa (%)
Reply numerically in %, unit not repeated.

Input: # get_value(readout='Fa', item= O=C1NCCc2c1cnn2-c1ccnc(Cc2cc(F)cc(C(F)(F)F)c2)c1 )
Output: 85

---

assay: AUC (0 to infinity) in CD-1 mouse at 1 mg/kg,iv by LC-MS/MS analysis; type: ADME, organism-based; design: dose 1 mg/kg, route iv; conditions: in vivo
PARAMETER: AUC(0-inf) (ng·h/mL)
Reply numerically in ng·h/mL, unit not repeated.

Input: # get_value(readout='AUC(0-inf)', item= O=C1NCCc2c1cnn2-c1ccnc(Cc2cc(F)cc(C(F)(F)F)c2)c1 )
Output: 2610
